log10(Ki), hCA II (Homo sapiens, UniProt P00918): measured values
READOUT_NAME: log10(Ki) (log10 of the value in nM)

- COMPOUND: "CC(NC(=S)NCc1ccc(S(N)(=O)=O)cc1)C(=O)O (centres unmarked) [B15]"
  MEASURED_TARGET: "hCA II (Homo sapiens, UniProt P00918)"
  OBSERVED: 1.00
- COMPOUND: "NS(=O)(=O)c1ccc(CNC(=S)NC(CC(=O)O)C(=O)O)cc1 (centres unmarked) [B27]"
  MEASURED_TARGET: "hCA II (Homo sapiens, UniProt P00918)"
  OBSERVED: 0.85
- COMPOUND: "NS(=O)(=O)c1ccc(CNC(=S)NC(Cc2cnc[nH]2)C(=O)O)cc1 (centres unmarked) [B32]"
  MEASURED_TARGET: "hCA II (Homo sapiens, UniProt P00918)"
  OBSERVED: 0.78
- COMPOUND: "CSCCC(NC(=S)NCc1ccc(S(N)(=O)=O)cc1)C(=O)O (centres unmarked) [B23]"
  MEASURED_TARGET: "hCA II (Homo sapiens, UniProt P00918)"
  OBSERVED: 0.48
- COMPOUND: "CCC(C)C(NC(=S)NCc1ccc(S(N)(=O)=O)cc1)C(=O)O (centres unmarked) [B26]"
  MEASURED_TARGET: "hCA II (Homo sapiens, UniProt P00918)"
  OBSERVED: 0.60
- COMPOUND: "NS(=O)(=O)c1ccc(CNC(=S)NC(Cc2ccc(O)c(O)c2)C(=O)O)cc1 (centres unmarked) [B35]"
  MEASURED_TARGET: "hCA II (Homo sapiens, UniProt P00918)"
  OBSERVED: 0.78
- COMPOUND: "NS(=O)(=O)c1ccc(CNC(=S)N2CCCC2C(=O)NCC(=O)NCC(=O)O)cc1 (centres unmarked) [B46]"
  MEASURED_TARGET: "hCA II (Homo sapiens, UniProt P00918)"
  OBSERVED: 0.48
- COMPOUND: "CC(O)C(NC(=S)NCc1ccc(S(N)(=O)=O)cc1)C(=O)O (centres unmarked) [B21]"
  MEASURED_TARGET: "hCA II (Homo sapiens, UniProt P00918)"
  OBSERVED: 0.30
- COMPOUND: "NS(=O)(=O)c1ccc(CN=C=S)cc1 [B]"
  MEASURED_TARGET: "hCA II (Homo sapiens, UniProt P00918)"
  OBSERVED: 2.21
- COMPOUND: "NS(=O)(=O)c1ccc(CNC(=S)NC(CC(=O)O)C(=O)NC(CC(=O)O)C(=O)O)cc1 (centres unmarked) [B45]"
  MEASURED_TARGET: "hCA II (Homo sapiens, UniProt P00918)"
  OBSERVED: 1.08
- COMPOUND: "NS(=O)(=O)c1ccc(CNC(=S)NC(Cc2cnc[nH]2)C(=O)NC(Cc2ccccc2)C(=O)O)cc1 (centres unmarked) [B42]"
  MEASURED_TARGET: "hCA II (Homo sapiens, UniProt P00918)"
  OBSERVED: 0.30
- COMPOUND: "NS(=O)(=O)c1ccc(CNC(=S)NC(C(=O)O)c2ccccc2)cc1 (centres unmarked) [B18]"
  MEASURED_TARGET: "hCA II (Homo sapiens, UniProt P00918)"
  OBSERVED: 0.70
- COMPOUND: "NS(=O)(=O)c1ccc(CNC(=S)Nc2cccc(C(=O)O)c2)cc1 [B12]"
  MEASURED_TARGET: "hCA II (Homo sapiens, UniProt P00918)"
  OBSERVED: 1.00
- COMPOUND: "NS(=O)(=O)c1ccc(CNC(=S)NC(C(=O)O)C(O)c2ccccc2)cc1 (centres unmarked) [B20]"
  MEASURED_TARGET: "hCA II (Homo sapiens, UniProt P00918)"
  OBSERVED: 0.00
- COMPOUND: "NCCCCC(NC(=S)NCc1ccc(S(N)(=O)=O)cc1)C(=O)O (centres unmarked) [B37]"
  MEASURED_TARGET: "hCA II (Homo sapiens, UniProt P00918)"
  OBSERVED: 1.00
- COMPOUND: "NS(=O)(=O)c1ccc(CNC(=S)NCC(=O)O)cc1 [B14]"
  MEASURED_TARGET: "hCA II (Homo sapiens, UniProt P00918)"
  OBSERVED: 1.23
- COMPOUND: "NS(=O)(=O)c1ccc(CNC(=S)NCCCC(=O)O)cc1 [B17]"
  MEASURED_TARGET: "hCA II (Homo sapiens, UniProt P00918)"
  OBSERVED: 1.00

###

Lab note: Ki readings collected with UniProtKB P00915 for the following molecules.
Sequence (P00915 whole entry): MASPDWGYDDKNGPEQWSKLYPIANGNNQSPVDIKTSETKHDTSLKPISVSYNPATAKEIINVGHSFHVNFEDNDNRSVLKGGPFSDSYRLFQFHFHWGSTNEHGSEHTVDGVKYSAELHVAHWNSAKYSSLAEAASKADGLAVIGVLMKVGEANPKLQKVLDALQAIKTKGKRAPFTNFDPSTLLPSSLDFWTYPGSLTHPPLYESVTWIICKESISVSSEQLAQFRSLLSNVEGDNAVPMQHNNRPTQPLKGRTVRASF

- MOLECULE: "NS(=O)(=O)c1ccc(CNC(=S)NC(Cc2c[nH]c3ccccc23)C(=O)O)cc1 (centres unmarked)"
  Ki, µM: 0.042
- MOLECULE: "NS(=O)(=O)c1ccc(CNC(=S)NC(Cc2cnc[nH]2)C(=O)NC(Cc2ccccc2)C(=O)O)cc1 (centres unmarked)"
  Ki, µM: 0.019
- MOLECULE: "NS(=O)(=O)c1ccc(CNC(=S)NCC(=O)NCC(=O)O)cc1"
  Ki, µM: 0.05
- MOLECULE: "NS(=O)(=O)c1ccc(CNC(=S)N2CCCC2C(=O)NCC(=O)NCC(=O)O)cc1 (centres unmarked)"
  Ki, µM: 0.022
- MOLECULE: "NS(=O)(=O)c1ccc(CNC(=S)NC(C(=O)O)C(O)c2ccccc2)cc1 (centres unmarked)"
  Ki, µM: 0.02
- MOLECULE: "NCCCCC(NC(=S)NCc1ccc(S(N)(=O)=O)cc1)C(=O)O (centres unmarked)"
  Ki, µM: 0.073
- MOLECULE: "NS(=O)(=O)c1ccc(CNC(=S)NC(Cc2ccc(O)cc2)C(=O)O)cc1 (centres unmarked)"
  Ki, µM: 0.024
- MOLECULE: "NS(=O)(=O)c1ccc(CNC(=S)NCCCC(=O)O)cc1"
  Ki, µM: 0.04
